Quick reference: relative viability of the listed items.
system: NCI-H322M; experiment: relative viability (nuclei count vs DMSO), 5 days (fraction); higher = more cells survive; conditions: first compound 0.005 µM
Answer using only a numeral; do not append any unit.

{"compound": "COc1cc2nccc(Oc3ccc(NC(=O)Nc4cc(C)on4)c(Cl)c3)c2cc1OC [Tivozanib] + COc1cc2c(Oc3ccc(NC(=O)C4(C(=O)Nc5ccc(F)cc5)CC4)cc3F)ccnc2cc1OCCCN1CCOCC1 [Foretinib] (partner 0.25 µM)", "testValue": 0.843}
{"compound": "Nc1ccn([C@@H]2O[C@H](CO)[C@@H](O)[C@@H]2O)c(=O)n1 [Cytarabine] + COc1cccc2cc(-c3nc([C@H]4CC[C@H](C(=O)O)CC4)n4ncnc(N)c34)[nH]c12 [OSI-027] (partner 0.5 µM)", "testValue": 0.455}
{"compound": "Nc1ccn([C@@H]2O[C@H](CO)[C@@H](O)[C@@H]2O)c(=O)n1 [Cytarabine] + Cc1nc(Nc2ncc(C(=O)Nc3c(C)cccc3Cl)s2)cc(N2CCN(CCO)CC2)n1 [Dasatinib] (partner 0.075 µM)", "testValue": 0.259}
{"compound": "COc1cc2nccc(Oc3ccc(NC(=O)Nc4cc(C)on4)c(Cl)c3)c2cc1OC [Tivozanib] + Cc1cc(Nc2cc(N3CCN(C)CC3)nc(Sc3ccc(NC(=O)C4CC4)cc3)n2)n[nH]1 [Tozasertib] (partner 0.1 µM)", "testValue": 0.455}
{"compound": "COc1cc2nccc(Oc3ccc(NC(=O)Nc4cc(C)on4)c(Cl)c3)c2cc1OC [Tivozanib] + Cc1nc(NC(=O)N2CCC[C@H]2C(N)=O)sc1-c1ccnc(C(C)(C)C(F)(F)F)c1 [Alpelisib] (partner 2 µM)", "testValue": 0.743}
{"compound": "COc1cc2nccc(Oc3ccc(NC(=O)Nc4cc(C)on4)c(Cl)c3)c2cc1OC [Tivozanib] + O=C(c1cc(Cc2n[nH]c(=O)c3ccccc23)ccc1F)N1CCN(C(=O)C2CC2)CC1 [Olaparib] (partner 8 µM)", "testValue": 0.656}
{"compound": "Nc1ccn([C@@H]2O[C@H](CO)[C@@H](O)[C@@H]2O)c(=O)n1 [Cytarabine] + Nc1ncn([C@H]2C[C@H](O)[C@@H](CO)O2)c(=O)n1 [Decitabine] (partner 2 µM)", "testValue": 0.687}
{"compound": "Nc1ccn([C@@H]2O[C@H](CO)[C@@H](O)[C@@H]2O)c(=O)n1 [Cytarabine] + CC(C)C[C@H](NC(=O)[C@H](Cc1ccccc1)NC(=O)c1cnccn1)B(O)O [Bortezomib] (partner 0.002 µM)", "testValue": 0.718}

Turning now to a further record.
Item Nc1ccn([C@@H]2O[C@H](CO)[C@@H](O)[C@@H]2O)c(=O)n1 [Cytarabine] + CC1(C)CCC(c2ccc(Cl)cc2)=C(CN2CCN(c3ccc(C(=O)NS(=O)(=O)c4ccc(N[C@H](CCN5CCOCC5)CSc5ccccc5)c(S(=O)(=O)C(F)(F)F)c4)cc3)CC2)C1 [Navitoclax] (partner 0.5 µM) was tested on NCI-H322M; the reported relative viability is 0.846

###

Recorded relative viability for the following compounds
test system: NCI-H1915; assay: relative viability (nuclei count vs DMSO), 5 days (fraction); higher = more cells survive; conditions: first compound 0.08 µM
Form rule: numeric answer, no unit written next to it.

{"compound": "Cc1cnc(-c2cnc(NCCNc3ccc(C#N)cn3)nc2-c2ccc(Cl)cc2Cl)[nH]1 + Cc1nc(Nc2ncc(C(=O)Nc3c(C)cccc3Cl)s2)cc(N2CCN(CCO)CC2)n1 [Dasatinib] (partner 0.075 µM)", "relative viability": 0.339}
{"compound": "Cc1cnc(-c2cnc(NCCNc3ccc(C#N)cn3)nc2-c2ccc(Cl)cc2Cl)[nH]1 + Nc1nc2[nH]cc(CCc3ccc(C(=O)N[C@@H](CCC(=O)O)C(=O)O)cc3)c2c(=O)[nH]1 [Pemetrexed] (partner 0.2 µM)", "relative viability": 0.49}
{"compound": "Cc1cnc(-c2cnc(NCCNc3ccc(C#N)cn3)nc2-c2ccc(Cl)cc2Cl)[nH]1 + NC(=O)Nc1cc(-c2cccc(F)c2)sc1C(=O)N[C@H]1CCCNC1 [AZD7762] (partner 0.2 µM)", "relative viability": 0.692}

Noted relative viability for O=c1[nH]c2ccccc2n1C1CCN(CCCC(c2ccc(F)cc2)c2ccc(F)cc2)CC1 [Pimozide] + N=C(N)NC(=N)NCCc1ccccc1 [Phenformin] (partner 250 µM) , tested on NCI-H1915: 0.363

Note to self: relative viability of O=c1[nH]c2ccccc2n1C1CCN(CCCC(c2ccc(F)cc2)c2ccc(F)cc2)CC1 [Pimozide] + C[C@]1(O)C[C@@H](c2nc(-c3ccc4ccc(-c5ccccc5)nc4c3)c3c(N)nccn32)C1 [Linsitinib] (partner 1 µM) with NCI-H1915 was 1.09
